Source of measurements: patent US20130224224A1

Items are presented alongside their recorded % block.
TARGET OF ASSAY: T1, human CX3CR1 (human, UniProt P49238 1-355)
T1 construct: overexpressed on CHO, BA/F3 or HEK293T cells; also called huCX3CR1; hCX3CR1
T1 sequence: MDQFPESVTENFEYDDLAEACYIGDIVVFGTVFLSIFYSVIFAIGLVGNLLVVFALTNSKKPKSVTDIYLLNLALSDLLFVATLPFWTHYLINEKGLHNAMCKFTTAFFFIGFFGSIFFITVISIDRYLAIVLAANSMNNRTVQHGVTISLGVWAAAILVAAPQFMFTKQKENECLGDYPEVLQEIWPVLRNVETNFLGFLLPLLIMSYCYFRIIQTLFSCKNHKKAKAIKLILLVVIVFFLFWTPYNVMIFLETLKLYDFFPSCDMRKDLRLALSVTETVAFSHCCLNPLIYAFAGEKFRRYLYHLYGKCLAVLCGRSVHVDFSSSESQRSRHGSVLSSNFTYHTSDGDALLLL
PROCEDURE DETAILS: A647-fractalkine competition FACS, HEK293T human CX3CR1
Method: Periplasmic extracts were screened in a human CX3CR1/human Fractalkine FACS competition assay to assess the blocking capacity of the expressed VHHs. Human CX3CR1 was presented on CHO cells overexpressing CX3CR1. […] After one hour incubation at 4 C, cells were washed three times before read out was performed on a FACS Array (Becton Dickinson). First a gate was set on the intact cells as determined from the scatter profile. […]
Dear colleague, please return just the value in %, with no unit written.

IN: Could you please provide reported % block for CX3CR1BIIPMP54G3 (VHH, also called 54G03; not shown: C-terminal c-myc and His6 tags) VHH: EVQLVESGGGSVQAGESLRLSCAASGSIFSSNAMAWYRQAPGKQRDLVALINSVGITKYADSVKGRFTISRDNAKNTVYLQMNSLKPEDTAVYYCTSDPRRGWDTRYWGQGTLVTVSS ? Thanks!
OUT: 89

IN: Could you please provide reported % block for CX3CR1BIIPMP66B02 (VHH, alexa647 label where used as labeled competitor (Table 23), also called CX3CR1BII66B02; C100CX3CR1BII66B02; not shown: C-terminal c-myc and His6 tags) VHH: EVQLVESGGGSVQAGESLRLSCAASGSIFSSNAMAWYRQAPGKRRDLVAAINSVGVTKYADSVKGRFTISRDNAKNTVYLQMNSLKPEDTAVYYCTSDPRRGWDTRYWGQGTQVTVSS ? Thanks!
OUT: 102

IN: Could you please provide reported % block for CX3CR1BIIPMP54B3 (VHH, also called 54B03; not shown: C-terminal c-myc and His6 tags) VHH: EVQLVESGGGSVQAGESLRLSCAASGSIFSSNAMAWYRQAPGKQRDLVAAINSVGITKYADSVKGRFTISRDNAKNTVYLQMNSLKPEDTAVYYCTSDPRRGWDTRYWGQGTQVTVSS ? Thanks!
OUT: 92

IN: Could you please provide reported % block for CX3CR1BIIPMP61G3 (VHH, also called 61G03; not shown: C-terminal c-myc and His6 tags) VHH: KVQLVESGGGSMQAGESLRLSCAASGSIFSSNAMAWYRQAPGKQRDLVAAINSVGITKYADSVKGRFTISRDNAKNTVYLQMMSLKPEDTAVYYCTSDPRRGWDTRYWGQGTQVTVSS ? Thanks!
OUT: 96
